# Test system: human podocyte cell line (CIHP-1)
# Assay Text: PAN-injury podocyte viability assay (Cell Titer-Glo)
# Assay type: cell-based
# Setup Conditions: compound 0.1 μM, 4 h pretreatment, PAN 5 μg/ml 5-day treatment
CIHP-1 proliferation by CTG, percentage compared to DMSO control (without PAN) values by entry
Property Label: CIHP-1 proliferation by CTG, percentage compared to DMSO control (without PAN)

| Molecule | Test Value |
| --- | --- |
| CCc1ccc(CCOc2ccc(CC3SC(=O)NC3=O)cc2)nc1 (stereo not shown) [pioglitazone] | 38.3% |
| COc1ccc(Oc2cc(N(C)CCOc3ccc(CC4SC(=O)NC4=O)cc3)ncn2)cc1 (stereo not shown) [lobeglitazone] | 33.0% |
| CN(CCOc1ccc(CC2SC(=O)NC2=O)cc1)c1ccccn1 (stereo not shown) [rosiglitazone] | 32.7% |
| C[C@@H]1C[C@H]2[C@@H]3CCC4=CC(=O)C=C[C@]4(C)[C@@]3(F)[C@@H](O)C[C@]2(C)[C@@]1(O)C(=O)CO [dexamethasone] | 34.2% |

----------
# Assay Text: PAN-injury podocyte viability assay (Cell Titer-Glo)
# Assay type: cell-based, human
# Setup Conditions: human; 5 μg/ml PAN for 3 days, no test compound; read-out: podocyte viability compared with untreated cells

| Compound | viability at 3 days, 5 μg/ml |
| --- | --- |
| CN(C)c1ncnc2c1ncn2[C@@H]1O[C@H](CO)[C@@H](N)[C@H]1O [PAN, puromycin aminonucleoside] | 70 to 80% |
